tested on: Plasmodium falciparum; experiment: Antimalarial activity against Plasmodium falciparum 3D7 assessed as reduction in parasite growth incubated for 48 hrs; assay type: functional, organism-based; conditions: 3D7, 48 h
With a cut-off of 30 nM, any EC50 strictly below it is called rule met; any EC50 meeting it or above is called rule not met.

Prompt: Is EC50 strictly under 30 nM for the entry "CCOC(=O)c1c(NC(=O)c2ccccc2)sc2c(O)c(CN3CCOCC3)ccc12" ?
Response: rule not met

Prompt: For "CCN(CC)Cc1ccc2c(C(=O)NC)c(NC(=O)c3ccccc3)sc2c1O" , is the recorded EC50 below the cut-off of 30 nM?
Response: rule not met

Prompt: Report whether reported EC50 is lower than 30 nM (strictly) for "CCOC(=O)c1c(NC(=O)c2ccc(OC)cc2)sc2c(O)c(CN(CC)CC)ccc12"
Response: rule not met

Prompt: Bench note: check whether "CCOC(=O)c1c(NC(=O)c2ccccc2)sc2c(OC)c(CN(CC)CC)ccc12" shows EC50 below 30 nM
Response: rule not met

Prompt: Is EC50 strictly under 30 nM for the entry "CCOC(=O)c1c(NC(=O)c2ccccc2)sc2c(O)c(CNC34CC5CC(CC(C5)C3)C4)ccc12" ?
Response: rule not met

Prompt: Find out if reported EC50 for "CCCN(CCC)Cc1ccc2c(C(=O)OCC)c(NC(=O)c3ccccc3)sc2c1O" is less than 30 nM
Response: rule met

Prompt: Please state whether EC50 is below 30 nM for "CCN(CC)Cc1ccc2c(C(=O)OC)c(NC(=O)c3ccccc3)sc2c1O"
Response: rule not met

Prompt: Is EC50 of "CCOC(=O)c1c(NC(=O)c2ccccc2)sc2c(O)c(CN(CC)CC)ccc12" strictly below 30 nM?
Response: rule met

Prompt: Bench note: check whether "CCOC(=O)c1c(NC(=O)c2ccccc2)sc2c(O)c(CCN(C)C)ccc12" shows EC50 below 30 nM
Response: rule not met

Prompt: Hi there! Is EC50 for "CCOC(=O)c1c(NC(=O)c2ccccc2)sc2c(O)c(CN3CCCCC3)ccc12" below 30 nM, do you know?
Response: rule met

====

test system: Plasmodium falciparum; experiment: Antimalarial activity against Plasmodium falciparum 3D7 assessed as reduction in parasite growth incubated for 48 hrs; assay type: functional, organism-based; conditions: 3D7, 48 h
Value kind: pEC50
// field semantics: pEC50 = negative decimal log of concentration (mol/L)

In plain terms, "CCOC(=O)c1c(NC(=O)c2ccc(Cl)cc2)sc2c(O)c(CN(CC)CC)ccc12" has a documented pEC50 of 7.15

Consider "CCOC(=O)c1c(NC(=O)c2ccccc2)sc2c(O)c(CN(C)C)ccc12.Cl" . Its measured pEC50 is 7.62

Entry "CCOC(=O)c1c(NC(=O)c2ccccc2)sc2c(O)c(CN3CCCC3)ccc12" ; pEC50 = 7.80

The compound O[C@@H](c1cc(C(F)(F)F)nc2c(C(F)(F)F)cccc12)[C@H]1CCCCN1 [(S,R)-MEFLOQUINE] showed pEC50 equal to 7.80
